Tested on: A498 renal
Protocol Notes: NCI tumour cell line growth inhibition, 48 h
Measurement Label: TGI

smiles_record=COc1cccc(N=N/C(=N\NC(=O)c2cc(Br)ccc2O)c2ccc(N(CCC#N)CCC#N)cc2OC)c1 reported_measurement="> 150 µg/mL"
smiles_record=N#CC[N+]1(Cc2ccccn2)CCCC1 reported_measurement="> 100 µM"
smiles_record=CCOC(=O)C(=CN1CCNC1=S)C(=O)OCC reported_measurement="> 100 µM"
